The measured values listed here are drawn from PubChem BioAssay AID504766.

target: Nuclear receptor subfamily 0 group B member 1 (Homo sapiens) (UniProt P51843); assay: DAX1 (NR0B1) inhibitors, primary screen, cell-based, HEK293, Gal4-DAX1, luciferase luminescence (AID 504766); conditions: HEK293 Gal4-DAX1 luciferase reporter, at 6.75 µM;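 note: inhibition shows as a rise in luminescence from relieved DAX1 repression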
Sequence (P51843 207-470 limits assumed): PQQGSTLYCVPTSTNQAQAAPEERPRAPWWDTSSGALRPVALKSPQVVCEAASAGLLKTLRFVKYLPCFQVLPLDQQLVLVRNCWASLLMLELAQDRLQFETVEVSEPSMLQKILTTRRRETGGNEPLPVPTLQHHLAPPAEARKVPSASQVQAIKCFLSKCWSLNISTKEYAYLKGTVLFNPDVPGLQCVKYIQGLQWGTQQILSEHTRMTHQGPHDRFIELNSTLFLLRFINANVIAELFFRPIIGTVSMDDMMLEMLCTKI
Hit rate of the full screen: of about 340,000 compounds, about 3,400 (1%) were called active.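 Rule for the calls: active = inhibition above the mean over all tested compounds plus 3 SD (cut at about 4.2% in these data); inactive = the rest.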 Many of the other results were omitted from the sample, so actives are more common in it than they were.
Use one of these outcomes when replying: yes (active), no (inactive)

Asked: Field: outcome | Entry: "COc1cc2nc(N3CCN(C(=O)[C@@H]4CCCO4)CC3)nc(N)c2cc1OC"
Given back: no

Asked: Fill in: this test's call for "COC(=O)C1=C(c2ccc3ccccc3c2)C[C@@H]2CC[C@H]1N2C(=O)NCCO" is ___
Given back: no

Asked: Short answer needed: outcome of this test for "COC(=O)C1=C(c2ccc(F)cc2F)C[C@@H]2CC[C@H]1N2C(=O)NC1CC1" ?
Given back: no

Asked: What is the recorded call for this compound in the test? "O=C(c1cc(S(=O)(=O)N2CCOCC2)ccc1F)N1CCC2(CC1)OCCO2"
Given back: no

Asked: Hi team, can someone confirm the assay call for "O=C1NC(=O)C(CCOc2ccccc2)(CCc2ccccc2)C(=O)N1" ?
Given back: no

Asked: Please state the recorded outcome for this compound: "COC(=O)C1=C(c2cccc(OCc3ccccc3)c2)C[C@@H]2CC[C@H]1N2C(=O)NCc1ccc(Br)cc1"
Given back: no

Asked: Outcome? Fc1ccc(C2N3CCCN23)cc1 (stereo not drawn)
Given back: yes

Asked: Write down the call the test reported for this compound. Item: CC1C(=O)OC2CCN3CC=C(COC(=O)C(C)(O)C1(C)O)C23 (stereo not drawn)
Given back: yes

Asked: Hi, sorry to bother you, what did the test record for "O=C(c1ccccc1[N+](=O)[O-])N1CCC2(CC1)OCCO2" ?
Given back: yes

Asked: Please indicate how the test categorized "O=C(CCC(=O)N1C[C@H]2C[C@@H](C1)c1cccc(=O)n1C2)NCc1ccccc1C(F)(F)F" .
Given back: no

Asked: Kindly provide the recorded test outcome for the following compound: "O=C(NCC1=C(c2ccc3ccccc3c2)C[C@@H]2CC[C@H]1N2Cc1ccco1)c1cccs1"
Given back: no

Asked: How was C[C@]12CC[C@H](O)CC1=C([N+](=O)[O-])CC1C2CC[C@@]2(C)C1CC[C@@H]2O (stereo partly drawn) classified in this test?
Given back: no

Asked: Entry "N=c1ccccn1Cc1ccccc1" : call = ?
Given back: yes

Asked: Could you please tell me the result logged for "O=C(N/N=C/c1c(O)n(Cc2ccccc2)c(=O)[nH]c1=O)c1ccccc1" in this assay?
Given back: no

Asked: Fill in: this test's call for "Cc1ccc(OC(=O)N(C)C[C@@H]2OCc3cnnn3CCCC(=O)N([C@H](C)CO)C[C@@H]2C)cc1" is ___
Given back: no

Asked: Dear colleague, could you share the recorded outcome for "CN1CCc2cc3c(cc2[C@H]1[C@@H]1OC(=O)c2c1ccc1c2OCO1)OCO3" when you have a moment?
Given back: no

Asked: Assay outcome for "O=C(c1cc(-c2ccncc2)nc2ccccc12)N1CCC2(CC1)OCCO2" : what was it?
Given back: no

Asked: Each compound tested received a call. Report the one for "CN(C)c1nc(N(C)C)nc(N(C#N)CCCl)n1" .
Given back: no
